Hey, just so you know, these numbers are from PubChem BioAssay (NCI).

system: HCT-116 colon; assay: NCI-60 one-dose screen, 48 h; settings: 10 µM unless noted
The panel holds about 83,000 compounds, 20% with a hit somewhere; the sample as a whole holds those more often. The source made the active and inactive calls. The calls were made as follows: active = growth percent below 10; inactive = the rest.
Respond only with the outcome that fits, drawn from active, inactive

compound | className
Fc1c[c-]c(-c2ccccn2)c(F)c1.[CH3-].[Pt+2].c1ccc(P(C[PH+](c2ccccc2)c2ccccc2)c2ccccc2)cc1 | active
Cc1ccc(S(=O)(=O)N/N=C\c2cc(Cl)ccc2O)cc1 | inactive
COc1ccc(-c2nc3sccn3c2-c2cc(-c3cc(OC)c(OC)c(OC)c3)on2)cc1 | inactive
COc1ccc2c(c1)O/C(=C/c1ccc(OCC(=O)c3ccccc3)cc1)C2=O | inactive
COC(=O)[C@]12CC[C@@H](C)[C@H](C)[C@@H]1C1=CC[C@@H]3[C@@]4(C)C(C=O)=C[C@@](C)(CO)[C@@H]4[C@H](O)C[C@@]3(C)[C@]1(C)CC2 | active
COc1cc(C2CC(c3ccc(Nc4ccnc5cc(Cl)ccc45)cc3)=NN2C=O)cc(OC)c1OC (stereo not drawn) | inactive
COc1ccc(NC(=O)CSc2nc(C)c(C(C)=O)n2-c2ccc([N+](=O)[O-])cc2)cc1 | inactive

[in] // outcome(item) with item = NC(N)=Nc1nc2ccccc2n2c1nc1ccccc12
[out] inactive
